System: UO-31 renal
Assay: NCI tumour cell line growth inhibition, 48 h
# maps each entry to its TGI

>  <compound>
C/C(CC(O)(C(F)(F)F)C(F)(F)F)=N\NC(N)=O

>  <TGI>
> 10 µM

$$$$
>  <compound>
CC(C)(C)c1ccc(OCCOc2ccc(C(C)(C)C)cc2N)c(N)c1

>  <TGI>
> 100 µM

$$$$
>  <compound>
COc1cc(/C=C2\C(=O)N(c3cccc([N+](=O)[O-])c3)C(c3ccccc3)S2(=O)=O)cc(OC)c1OC (configuration not stated)

>  <TGI>
> 100 µM

$$$$
>  <compound>
CC1=C(C(=O)Nc2ccccc2C)C(c2ccc(Cl)cc2)C(C(=O)Nc2ccccc2C)=C(C)N1

>  <TGI>
> 100 µM

$$$$
>  <compound>
O=c1ncccn1[C@@H]1O[C@H](CO)[C@H](O)C1O (some centres not stated)

>  <TGI>
> 100 µM

$$$$
>  <compound>
O=c1oc2ccccc2c2c1Sc1ccccc1N2

>  <TGI>
> 100 µM

$$$$
>  <compound>
C[C@@H]1OC(=O)C[C@H]2CC(=O)N(CCC3CN(C(=O)OCc4ccccc4)c4ccccc43)C[C@@H]21 (some centres not stated)

>  <TGI>
> 100 µM

$$$$
>  <compound>
CN1CCN(C(=S)N(C)C(=O)c2ccco2)CC1

>  <TGI>
> 100 µM

$$$$
>  <compound>
N#CC(N)=Nc1ccccc1

>  <TGI>
> 100 µM

$$$$
>  <compound>
Cc1ccc2nc(SCC(=O)N=Nc3c(O)[nH]c4ccccc34)n(-c3ccccc3)c(=O)c2c1

>  <TGI>
12.9 µM

$$$$
>  <compound>
Cc1ccc(C(=N)c2ccccc2Cc2cccc3ccccc23)c2ccccc12

>  <TGI>
> 100 µM

$$$$
>  <compound>
O=C1[C@H](O)[C@@H]2C(O)O[C@H]3[C@@H]2N1C[C@H]3[Si](c1ccccc1)(c1ccccc1)c1ccccc1 (some centres not stated)

>  <TGI>
> 100 µM

$$$$
>  <compound>
CC(=O)c1c(O)c(C)c(O)c(Cc2c(O)c3c(c(C(=O)/C=C/c4ccccc4)c2O)OC(C)(C)C=C3)c1O

>  <TGI>
8.19 µM

$$$$
>  <compound>
COc1cc2c(c(O)c1O)C(=O)C1CCC(=O)N1C2c1cccc2ccccc12 (configuration not stated)

>  <TGI>
> 50 µM

$$$$
>  <compound>
COc1ccc([C@H]2[C@H]3COC(=O)[C@H]3C(C#N)=C3Sc4ccccc4N32)cc1

>  <TGI>
> 100 µM

$$$$
>  <compound>
O=C(O)c1nc(NCc2nc3cc(Cl)ccc3o2)n[nH]1

>  <TGI>
> 100 µM

$$$$
>  <compound>
Cc1ccc(Nc2nc3[nH]ccc3c(=O)[nH]2)cc1

>  <TGI>
> 100 µM

$$$$
>  <compound>
CN1N=CSC12C(=O)N(c1ccccc1)C(=O)N2c1ccccc1 (configuration not stated)

>  <TGI>
> 100 µM

$$$$
>  <compound>
Oc1cccc(Nc2nc3ccccc3c3occc23)c1

>  <TGI>
22.2 µM

$$$$
>  <compound>
C=C(c1ccccc1)C1(O)CCCCC1N (configuration not stated)

>  <TGI>
> 100 µM

$$$$
>  <compound>
Cc1cc2c(C)nn(Cc3ccccc3)c2c(C(=O)O)c1C

>  <TGI>
> 100 µM

$$$$
>  <compound>
Cc1c2cnccc2c(C)c2c1c1cc(C#N)ccc1n2C

>  <TGI>
0.869 µM

$$$$
>  <compound>
O=C1c2cccc([N+](=O)[O-])c2C(=O)N1Cc1ccccc1

>  <TGI>
> 100 µM

$$$$
>  <compound>
c1ccc(/C(=N/Nc2nc3ccccc3s2)C2CCCCC2)nc1

>  <TGI>
15.4 µM

$$$$
>  <compound>
CCc1c2c(nc3ccc(OCc4ccc(B(O)O)cc4)cc13)-c1cc3c(c(=O)n1C2)COC(=O)[C@]3(O)CC

>  <TGI>
0.913 µM

$$$$
>  <compound>
Cc1ccc2c(c1)-c1nc(N)c(C#N)c(-c3ccc(Cl)cc3)c1CCS2(=O)=O

>  <TGI>
86.2 µM

$$$$
>  <compound>
CCOC(=O)NC(=O)c1cn(CCN2CCN(C(=O)NCCCCCCNC(=O)N3CCN(CCn4cc(C(=O)NC(=O)OCC)c(=O)[nH]c4=O)CC3)CC2)c(=O)[nH]c1=O

>  <TGI>
> 100 µM

$$$$
>  <compound>
CCN1C(=O)N(CC)C2C1NN=c1s/c(=C\c3ccc(Cl)cc3Cl)c(=O)n12 (configuration not stated)

>  <TGI>
60.4 µM

$$$$
>  <compound>
NC(=O)CNC(=O)[C@@H]1CC(OCCC(=O)O)CN1C(=O)C1CCCN1C(=O)OCc1ccccc1 (some centres not stated)

>  <TGI>
> 100 µM

$$$$
>  <compound>
O=C(O)CCc1nc2c(n1-c1ccccc1)C(=O)c1ccccc1C2=O

>  <TGI>
> 100 µM

$$$$
>  <compound>
COc1ccc2c(c1)C(=O)/C(=C/c1cccc(OCC(=O)c3ccccc3)c1)CC2

>  <TGI>
> 100 µM

$$$$
>  <compound>
O=S(=O)(Nc1ccc(Br)cc1)c1ccc(-c2cnc(C3CC3)o2)cc1

>  <TGI>
15.7 µM

$$$$
>  <compound>
O=C(c1ccc2ccccc2c1)c1c(C(F)(F)F)n([O-])c2ccc(C(F)(F)F)cc2[n+]1=O

>  <TGI>
0.874 µM

$$$$
>  <compound>
Cn1ccnc1CCc1c(Cl)cccc1Cl

>  <TGI>
> 100 µM

$$$$
>  <compound>
C/C=C/C(C#N)O[Si](C)(C)C (configuration not stated)

>  <TGI>
> 100 µM

$$$$
>  <compound>
CC12CCC(CC(=O)/C1=C(/Br)I)C2(C)C (configuration not stated)

>  <TGI>
32.1 µM

$$$$
>  <compound>
CCOC(=O)Oc1c(OC)cc(C(=O)c2ccc(OC)c(O)c2OC)cc1OC

>  <TGI>
> 100 µM

$$$$
>  <compound>
CCc1n[nH]c(=O)n1CCCCCCCCCCCCn1c(CC)n[nH]c1=O

>  <TGI>
> 100 µM

$$$$
>  <compound>
O=c1[nH]/c(=C/c2ccc(OCc3ccccc3)cn2)c(=O)[nH]/c1=C/c1ccccc1

>  <TGI>
> 100 µM

$$$$
>  <compound>
CO/N=C(\COc1ccc2c(c1)[nH]c1ccccc12)c1ccc(OC)cc1

>  <TGI>
> 100 µM

$$$$
>  <compound>
O=C(Nc1ccccc1F)c1cc2ccc(O)cc2oc1=Nc1cccc(F)c1

>  <TGI>
29.3 µM

$$$$
>  <compound>
COC(=O)C1(NC(=O)C(CC(=O)OCc2ccccc2)NC(=O)OCc2ccccc2)CCCCCC1 (configuration not stated)

>  <TGI>
> 100 µM

$$$$
